For each of the compounds below, state its log10 IC50.
- test-system: NET (Rattus norvegicus, UniProt Q63380)
- Construct: Cortex from rat brain was collected and homogenised; from tissue; host or cells: rat brain cortex
- Sequence (Q63380 1-617): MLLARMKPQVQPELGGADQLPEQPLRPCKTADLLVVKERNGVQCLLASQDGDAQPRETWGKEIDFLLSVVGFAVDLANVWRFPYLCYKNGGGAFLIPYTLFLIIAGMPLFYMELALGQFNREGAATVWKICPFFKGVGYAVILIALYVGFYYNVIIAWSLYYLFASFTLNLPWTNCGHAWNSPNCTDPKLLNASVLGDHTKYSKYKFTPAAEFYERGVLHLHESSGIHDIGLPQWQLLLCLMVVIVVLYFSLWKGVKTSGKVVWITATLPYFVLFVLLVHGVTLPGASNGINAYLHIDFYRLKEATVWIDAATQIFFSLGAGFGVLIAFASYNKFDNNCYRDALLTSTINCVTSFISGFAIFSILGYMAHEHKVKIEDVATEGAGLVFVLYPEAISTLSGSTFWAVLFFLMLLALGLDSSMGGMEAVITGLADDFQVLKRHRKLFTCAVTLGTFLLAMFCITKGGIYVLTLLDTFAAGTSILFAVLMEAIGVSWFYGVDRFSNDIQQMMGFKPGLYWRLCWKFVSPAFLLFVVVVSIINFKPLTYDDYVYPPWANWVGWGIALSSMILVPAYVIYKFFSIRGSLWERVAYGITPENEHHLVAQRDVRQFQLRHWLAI
- experiment-summary: In vitro determination of NET reuptake inhibition ([3H]Nixosetine binding)
- condition-description: rat brain cortex membranes, read-out: NET-inhibition (pIC50) (converted)
The common logarithm of IC50 in nM is what is listed.

What does the record list as log10 IC50 for CN(CCO)CC1CC2c3ccccc3Sc3sccc3C2O1 (racemic) ? 2.10

What do you have for CNC[C@H]1C[C@H]2c3ccccc3Sc3sccc3[C@@H]2O1 (relative stereo) ? 2.10

Now give it for OC1CCN(C[C@H]2C[C@@H]3c4ccccc4Sc4sccc4[C@H]3O2)C1 (relative stereo) too. 3.50

# iterate: CN(CCO)C[C@H]1C[C@H]2c3ccccc3Sc3sccc3[C@@H]2O1 (relative stereo) 2.30

Try CNCC1CC2c3ccccc3Cc3sccc3C2O1 (stereo not shown) [Compound 6] next. 3.30

Then what about the compound CNC[C@H]1C[C@@H]2c3ccccc3Sc3sccc3[C@H]2O1 (racemic) [Compound 32] ? 1.60

Note, next up: OCCN1CCN(C[C@H]2C[C@@H]3c4ccccc4Sc4sccc4[C@H]3O2)CC1 (relative stereo) 3.40

What about this compound? CNC[C@H]1C[C@@H]2c3ccccc3Sc3sccc3[C@H]2O1 (racemic) [Compound 20] 1.80

Then this compound: CNCC1CC2c3ccccc3Cc3sccc3C2O1 (stereo not shown) [Compound 8] 3.00

Queued: CNCC1CC2c3ccccc3Cc3sccc3C2O1 (stereo not shown) [Compound 7] 3.40

// same read-out, input: OCCC1CCN(CC2CC3c4ccccc4Sc4sccc4C3O2)CC1 (stereo not shown) 3.90

Now try CN(CCO)C[C@H]1C[C@@H]2c3ccccc3Sc3sccc3[C@H]2O1 (relative stereo) . 1.50

----------
I'd appreciate it if you could supply IC50 values for the items below.
- test-system: 5-HT2C receptors (Sus scrofa)
- Construct: the tissue used is the choroid plexus of the pig; from tissue; host or cells: pig choroid plexus
- Sequence (K7GSR7 1-457): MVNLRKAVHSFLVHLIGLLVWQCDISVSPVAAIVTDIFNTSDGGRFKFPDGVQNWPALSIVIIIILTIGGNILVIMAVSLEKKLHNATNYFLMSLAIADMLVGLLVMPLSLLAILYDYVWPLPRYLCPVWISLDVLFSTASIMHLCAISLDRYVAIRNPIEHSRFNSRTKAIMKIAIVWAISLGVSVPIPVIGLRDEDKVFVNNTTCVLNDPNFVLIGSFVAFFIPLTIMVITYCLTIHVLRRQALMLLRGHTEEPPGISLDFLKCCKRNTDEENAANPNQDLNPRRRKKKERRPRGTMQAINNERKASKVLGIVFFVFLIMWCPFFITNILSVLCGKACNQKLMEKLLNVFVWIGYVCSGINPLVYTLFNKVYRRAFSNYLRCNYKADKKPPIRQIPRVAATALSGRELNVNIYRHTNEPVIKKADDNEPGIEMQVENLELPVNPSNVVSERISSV
- experiment-summary: In vitro binding affinity for 5-HT2C receptor (3H-mesulergine radioligand binding)
- condition-description: choroid plexus of the pig, read-out: 5-HT2C (pIC50) (converted)
Numbers only here, please. The scale is µM.

Which value of IC50 has been reported for CN(C)CC1CC2c3ccccc3Cc3sccc3C2O1 (centres unmarked) in the records? 0.0501

Next: CN(C)C1CCN(C[C@H]2C[C@@H]3c4ccccc4Sc4sccc4C3O2)C1 (relative stereo) 0.0501

Likewise for CNCC1CC2c3ccccc3Cc3sccc3C2O1 (centres unmarked) [Compound 7] ? 0.02

Try this compound too: CN(CCO)CC1CC2c3ccccc3Sc3sccc3C2O1 (racemic) 0.01

Ok, now OCCN1CCN(C[C@H]2C[C@H]3c4ccccc4Sc4sccc4[C@@H]3O2)CC1 (relative stereo) 0.251
